Origin of the recorded values: paper PMC9952374

Tested on: BT-474 cells
Assay text: Alamar Blue cell viability assay, BT-474
Assay type: cell-based, human
Condition set: BT-474 cell viability, Alamar Blue
Readout label: IC50

Some solved cases for reference:
Give the measured IC50 of Cc1ccc2nc(C)c(C3=NN(C(=S)Nc4ccccc4)C(c4cccc([N+](=O)[O-])c4)C3)n2c1 (stereo not shown) . > 100 µM

Note, next up: Cc1ccc2nc(C)c(C3=NN(C(=S)Nc4cccc(Cl)c4)C(c4cccc([N+](=O)[O-])c4)C3)n2c1 (stereo not shown) > 100 µM

Another molecule: Cc1ccc2nc(C)c(C3=NN(C(=S)NC4CCCCC4)C(c4cccc([N+](=O)[O-])c4)C3)n2c1 (stereo not shown) 52.8 µM

Could you now look at the following molecule, please?
Item under review: Cc1ccc(NC(=S)N2N=C(c3c(C)nc4ccc(C)cn34)CC2c2cccc([N+](=O)[O-])c2)cc1 (stereo not shown) . Reported IC50? > 100 µM
